# System: acetylcholine receptor
# Test Summary: SPR, AchR immobilised, peptide 10 uM
Measured Quantity: Binding affinity (RU)
Give the quantity in RU, number only.

{"Binder": "KKDHFR [6mer-1-607]", "Measured Quantity": "Binding affinity (RU)", "Endpoint Value": 22}
{"Binder": "RKYHDK [6mer-1-1092]", "Measured Quantity": "Binding affinity (RU)", "Endpoint Value": 43}
{"Binder": "KKTCDK [6mer-1-1070]", "Measured Quantity": "Binding affinity (RU)", "Endpoint Value": 24}

With those in mind, consider the next binder.
// query I'd like to know its Binding affinity (RU). The binder in question is KRIMER [6mer-1-612]
// result 17
